experiment: Kinetic solubility of compound by measuring concentration at pH 7.4 in saturated PBS buffer by UV LCMS/MS using calibration curves. The assay has been performed by Enamine biological services, Bienta Ltd.The protocol is publicly available: dx.doi.org/10.17504/protocols.io.j8nlk8y41l5r/v1; format: physicochemical; conditions: PBS buffer
Overview of recorded log10 solubility kinetic for various compounds
RESULT TYPE: log10 solubility kinetic (log10 of the value in µM)

molecular_string=NCc1cccc(NC(=O)c2cccn3cc(CN4CCCC4)nc23)c1 result_type="log10 solubility kinetic" measured_value=2.52
molecular_string=O=C(NCC(F)F)[C@H](Nc1cnc2c(c1)CNC2)c1cc(Cl)cc(C2CC2)c1 result_type="log10 solubility kinetic" measured_value=2.56
molecular_string=NCc1cccc(NC(=O)c2cc(Cl)cc(NC(=O)OCc3ccccc3)c2)c1 result_type="log10 solubility kinetic" measured_value=1.95
molecular_string=CC(C)NC(=O)[C@H](Nc1ccc2c(c1)CNC2)c1cc(Cl)cc2[nH]ncc12 result_type="log10 solubility kinetic" measured_value=2.49
molecular_string=O=C1Cc2c(cccc2C(=O)Nc2ccc3c(c2)CNC3)N1 result_type="log10 solubility kinetic" measured_value=2.18
molecular_string=C=CC[C@H]1NCc2cc(NC(=O)c3cc(F)cc4[nH]ncc34)ccc21 result_type="log10 solubility kinetic" measured_value=2.55
molecular_string=O=C(NCCCF)[C@H](Nc1ccc2c(c1)CNC2)c1cc(Cl)cc(C2CC2)c1 result_type="log10 solubility kinetic" measured_value=2.60
molecular_string=CNC(=O)[C@H](Nc1cc(CN)cc(C(=O)O)c1)c1cc(Cl)cc(C2CC2)c1 result_type="log10 solubility kinetic" measured_value=2.53
molecular_string=O=C(Nc1cc(Cl)cc(-c2ccc3[nH]c(C(=O)O)cc3c2)c1)OCc1ccccc1 result_type="log10 solubility kinetic" measured_value=2.55
molecular_string=NCc1cccc(NC(=O)[C@@H](NC(=O)OCc2ccccc2)c2ccc(OCc3ccccc3)cc2)c1 result_type="log10 solubility kinetic" measured_value=1.36
